# SYSTEM_UNDER_TEST: Histone acetyltransferase KAT2B (Homo sapiens, UniProt Q92831)
# Sequence (Q92831 whole entry): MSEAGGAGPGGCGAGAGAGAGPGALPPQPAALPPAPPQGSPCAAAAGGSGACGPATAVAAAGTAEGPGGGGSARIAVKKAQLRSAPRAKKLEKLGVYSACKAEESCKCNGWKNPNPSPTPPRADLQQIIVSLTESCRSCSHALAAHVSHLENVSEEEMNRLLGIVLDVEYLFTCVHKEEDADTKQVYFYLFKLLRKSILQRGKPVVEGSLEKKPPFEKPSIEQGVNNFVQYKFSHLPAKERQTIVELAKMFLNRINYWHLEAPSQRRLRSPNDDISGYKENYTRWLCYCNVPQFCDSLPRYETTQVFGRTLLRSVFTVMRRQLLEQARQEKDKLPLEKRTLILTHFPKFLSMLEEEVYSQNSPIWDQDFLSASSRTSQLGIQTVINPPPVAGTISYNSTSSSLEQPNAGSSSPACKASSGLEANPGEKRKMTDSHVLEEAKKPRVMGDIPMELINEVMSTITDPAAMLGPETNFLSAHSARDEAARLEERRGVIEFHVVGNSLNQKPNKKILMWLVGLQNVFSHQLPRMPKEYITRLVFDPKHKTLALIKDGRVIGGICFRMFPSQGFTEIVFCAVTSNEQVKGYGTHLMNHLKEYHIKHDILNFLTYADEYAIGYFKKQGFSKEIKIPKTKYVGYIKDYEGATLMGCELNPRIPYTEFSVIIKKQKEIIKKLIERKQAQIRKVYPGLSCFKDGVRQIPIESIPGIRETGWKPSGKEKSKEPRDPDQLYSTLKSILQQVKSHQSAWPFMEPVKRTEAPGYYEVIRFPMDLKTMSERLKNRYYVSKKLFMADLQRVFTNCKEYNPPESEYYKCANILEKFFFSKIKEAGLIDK
# EXPERIMENT_NOTES: Binding affinity to human partial length PCAF bromodomain expressed in mammalian expression system by BROMOscan method
MEASUREMENT_TYPE: Ki (nM)

{"STRUCTURE_STRING": "CN1C[C@H](Nc2cnn(C)c(=O)c2Br)C[C@H](c2ccccc2)C1", "READING_UNIT": "nM", "VAL": 1.26}

Recorded values, source BindingDB's records for doi:10.1021/acs.jmedchem.6b01566.
